Biological target: human PD-L1 (human) (UniProt Q9NZQ7)
Sequence (Q9NZQ7 19-290): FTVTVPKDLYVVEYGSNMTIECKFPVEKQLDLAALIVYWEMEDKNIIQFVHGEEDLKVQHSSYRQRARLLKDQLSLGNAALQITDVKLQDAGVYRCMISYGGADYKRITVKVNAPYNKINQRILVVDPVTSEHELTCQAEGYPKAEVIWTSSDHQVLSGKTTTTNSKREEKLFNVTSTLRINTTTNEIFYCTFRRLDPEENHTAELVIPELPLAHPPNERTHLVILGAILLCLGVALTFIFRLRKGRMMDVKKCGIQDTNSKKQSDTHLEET
Assay: flow cytometry; binding to PD-L1 cells against binding of the same variant to CD28 cells
parameter: Ratio of PDL1:CD28
Reply with the value as a number alone.

QUERY: Could you share which Ratio of PDL1:CD28 value was measured for variant CD80 IgV-Fc Q33L/E35D/M43V/M47I/A71G (Fc fusion) VIHVTKEVKEVATLSCGHNVSVEELAQTRIYWLKDKKMVLTMVSGDINIWPEYKNRTIFDITNNLSIVILGLRPSDEGTYECVVLKYEKDAFKREHLAEVTLSVKAD ?
RESULT: 275

QUERY: Could you share which Ratio of PDL1:CD28 value was measured for variant CD80 IgV-Fc H18Y/Q33L/E35D/M47I (Fc fusion) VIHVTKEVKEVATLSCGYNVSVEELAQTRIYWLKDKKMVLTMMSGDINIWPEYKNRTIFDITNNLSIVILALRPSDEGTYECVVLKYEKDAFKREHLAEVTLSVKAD ?
RESULT: 162

QUERY: Could you share which Ratio of PDL1:CD28 value was measured for variant CD80 IgV-Fc Q33L/E35D/M47I (Fc fusion) VIHVTKEVKEVATLSCGHNVSVEELAQTRIYWLKDKKMVLTMMSGDINIWPEYKNRTIFDITNNLSIVILALRPSDEGTYECVVLKYEKDAFKREHLAEVTLSVKAD ?
RESULT: 132

QUERY: Could you share which Ratio of PDL1:CD28 value was measured for variant CD80 IgV-Fc Q33L/E35D/M47I/L85Q (Fc fusion) VIHVTKEVKEVATLSCGHNVSVEELAQTRIYWLKDKKMVLTMMSGDINIWPEYKNRTIFDITNNLSIVILALRPSDEGTYECVVQKYEKDAFKREHLAEVTLSVKAD ?
RESULT: 222

QUERY: Could you share which Ratio of PDL1:CD28 value was measured for variant CD80 IgV-Fc H18Y/Y31H/E35D/M47V/A71G/L85Q (Fc fusion) VIHVTKEVKEVATLSCGYNVSVEELAQTRIHWQKDKKMVLTMMSGDVNIWPEYKNRTIFDITNNLSIVILGLRPSDEGTYECVVQKYEKDAFKREHLAEVTLSVKAD ?
RESULT: 285

QUERY: Could you share which Ratio of PDL1:CD28 value was measured for variant CD80 IgV-Fc H18L/V22A/E35D/M47L/N48T/L85Q (Fc fusion) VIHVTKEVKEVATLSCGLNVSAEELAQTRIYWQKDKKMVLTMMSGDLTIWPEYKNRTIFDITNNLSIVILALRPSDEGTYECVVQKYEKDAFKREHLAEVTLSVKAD ?
RESULT: 226

QUERY: Could you share which Ratio of PDL1:CD28 value was measured for variant CD80 IgV-Fc Q33L/E35D/M47L/V68M/L85Q/E88D (Fc fusion) VIHVTKEVKEVATLSCGHNVSVEELAQTRIYWLKDKKMVLTMMSGDLNIWPEYKNRTIFDITNNLSIMILALRPSDEGTYECVVQKYDKDAFKREHLAEVTLSVKAD ?
RESULT: 476

QUERY: Could you share which Ratio of PDL1:CD28 value was measured for variant CD80 IgV-Fc Q27H/Q33L/E35D/M47V/N55D/L85Q/K89N (Fc fusion) VIHVTKEVKEVATLSCGHNVSVEELAHTRIYWLKDKKMVLTMMSGDVNIWPEYKDRTIFDITNNLSIVILALRPSDEGTYECVVQKYENDAFKREHLAEVTLSVKAD ?
RESULT: 55

QUERY: Could you share which Ratio of PDL1:CD28 value was measured for variant CD80 IgV-Fc H18Y/E35D/V68M/L97Q (Fc fusion) VIHVTKEVKEVATLSCGYNVSVEELAQTRIYWQKDKKMVLTMMSGDMNIWPEYKNRTIFDITNNLSIMILALRPSDEGTYECVVLKYEKDAFKREHQAEVTLSVKAD ?
RESULT: 407

QUERY: Could you share which Ratio of PDL1:CD28 value was measured for variant CD80 IgV-Fc Q33L/E35D/M43I/L85Q/R94W (Fc fusion) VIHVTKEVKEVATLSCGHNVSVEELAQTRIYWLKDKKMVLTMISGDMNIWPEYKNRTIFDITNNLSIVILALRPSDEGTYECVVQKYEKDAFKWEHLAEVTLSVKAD ?
RESULT: 107

QUERY: Could you share which Ratio of PDL1:CD28 value was measured for variant CD80 IgV-Fc E35D/D46E/M47V/L97Q (Fc fusion) VIHVTKEVKEVATLSCGHNVSVEELAQTRIYWQKDKKMVLTMMSGEVNIWPEYKNRTIFDITNNLSIVILALRPSDEGTYECVVLKYEKDAFKREHQAEVTLSVKAD ?
RESULT: 52

QUERY: Could you share which Ratio of PDL1:CD28 value was measured for variant CD80 IgV-Fc A26E/Q33R/E35D/M47L/L85Q (Fc fusion) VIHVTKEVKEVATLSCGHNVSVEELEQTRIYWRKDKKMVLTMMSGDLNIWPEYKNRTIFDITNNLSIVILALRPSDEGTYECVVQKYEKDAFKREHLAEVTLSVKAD ?
RESULT: 309

QUERY: Could you share which Ratio of PDL1:CD28 value was measured for variant CD80 IgV-Fc V22A/R29H/E35D/D46E/M47I (Fc fusion) VIHVTKEVKEVATLSCGHNVSAEELAQTHIYWQKDKKMVLTMMSGEINIWPEYKNRTIFDITNNLSIVILALRPSDEGTYECVVLKYEKDAFKREHLAEVTLSVKAD ?
RESULT: 79

QUERY: Could you share which Ratio of PDL1:CD28 value was measured for variant CD80 IgV-Fc Y31S/E35D/M47L/T79L/E88G (Fc fusion) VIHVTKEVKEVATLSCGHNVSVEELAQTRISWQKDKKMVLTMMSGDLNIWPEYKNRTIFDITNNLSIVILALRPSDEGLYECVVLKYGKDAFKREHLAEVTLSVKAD ?
RESULT: 140

QUERY: Could you share which Ratio of PDL1:CD28 value was measured for variant CD80 IgV-Fc A26E/E35D/M43T/M47L/L85Q/R94Q (Fc fusion) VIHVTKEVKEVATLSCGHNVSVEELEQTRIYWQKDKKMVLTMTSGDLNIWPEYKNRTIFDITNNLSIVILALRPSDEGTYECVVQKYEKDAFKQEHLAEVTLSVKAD ?
RESULT: 262

QUERY: Could you share which Ratio of PDL1:CD28 value was measured for variant CD80 IgV-Fc E7D/E35D/M47I/L97Q (Fc fusion) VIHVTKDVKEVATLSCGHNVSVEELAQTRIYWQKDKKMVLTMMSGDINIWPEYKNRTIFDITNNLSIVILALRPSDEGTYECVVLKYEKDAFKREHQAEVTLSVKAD ?
RESULT: 54
